# Assay Target: 5-HT2C receptor (Homo sapiens, UniProt P28335)
# Sequence (P28335 33-458): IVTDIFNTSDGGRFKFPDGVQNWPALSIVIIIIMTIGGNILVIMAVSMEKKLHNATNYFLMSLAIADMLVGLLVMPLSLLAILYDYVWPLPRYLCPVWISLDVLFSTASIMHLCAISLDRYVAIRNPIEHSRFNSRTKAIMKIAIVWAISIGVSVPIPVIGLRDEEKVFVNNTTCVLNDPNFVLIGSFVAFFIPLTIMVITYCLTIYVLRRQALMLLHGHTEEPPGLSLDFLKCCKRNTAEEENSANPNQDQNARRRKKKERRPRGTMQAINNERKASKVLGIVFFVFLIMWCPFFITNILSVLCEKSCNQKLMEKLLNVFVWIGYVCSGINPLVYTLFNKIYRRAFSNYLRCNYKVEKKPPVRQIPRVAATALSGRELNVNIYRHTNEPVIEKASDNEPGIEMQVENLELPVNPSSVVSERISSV
# Sequence (P32121 whole entry partner): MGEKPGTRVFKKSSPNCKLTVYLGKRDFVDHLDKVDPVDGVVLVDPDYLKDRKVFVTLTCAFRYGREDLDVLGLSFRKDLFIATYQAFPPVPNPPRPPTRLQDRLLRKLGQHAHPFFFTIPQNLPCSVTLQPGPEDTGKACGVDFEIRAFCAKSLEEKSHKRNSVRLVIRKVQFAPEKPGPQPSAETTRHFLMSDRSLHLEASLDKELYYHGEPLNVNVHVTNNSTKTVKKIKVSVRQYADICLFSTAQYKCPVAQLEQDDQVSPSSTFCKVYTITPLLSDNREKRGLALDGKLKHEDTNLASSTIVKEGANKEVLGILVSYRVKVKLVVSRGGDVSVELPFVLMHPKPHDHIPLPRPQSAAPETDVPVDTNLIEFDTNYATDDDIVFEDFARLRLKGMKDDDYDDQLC
# Procedure Summary: Human 5-HT2C functional assay (beta-arrestin2 recruitment, U2OS_HTR2C_β-Arrestin cells)
# Experimental Conditions: U2OS_HTR2C_β-Arrestin cells, 1.5 h incubation; compounds used as acid addition salts; read-out: EC50 5-HT2C (potency in functional assay)
Catalogue of compounds with associated EC50
Readout Name: EC50

- Compound: "COc1cc(OCCc2ccccc2F)c(F)cc1CNC(=O)[C@@H]1CCCN1 [Example 13]"
  Reported Result: "< 5 nM"
- Compound: "COc1cc(OCCc2ccc(C(F)(F)F)cc2)c(F)cc1CNC(=O)[C@@H]1CCCN1 [Example 14]"
  Reported Result: "5 to 15 nM"
- Compound: "COc1cc(OCc2cccc(F)c2F)c(F)cc1CNC(=O)[C@@H]1CCCN1 [Example 4]"
  Reported Result: "5 to 15 nM"
- Compound: "COc1cc(OCC2CC(F)(F)C2(F)F)c(F)cc1CNC(=O)[C@@H]1CCCN1 (some centres unmarked) [Example 30]"
  Reported Result: "< 5 nM"
- Compound: "COc1cc(O[C@H]2CC[C@H](C(F)(F)F)CC2)c(F)cc1CNC(=O)[C@@H]1CCCN1 [Example 33]"
  Reported Result: "< 5 nM"
- Compound: "COc1cc(O[C@H]2CC[C@@H](C(F)(F)F)CC2)c(F)cc1CNC(=O)[C@@H]1CCCN1 [Example 34]"
  Reported Result: "5 to 15 nM"
- Compound: "COc1cc(OCC2CCC(F)(F)C2)c(F)cc1CNC(=O)[C@@H]1CCCN1C (some centres unmarked) [Example 38]"
  Reported Result: "15 to 30 nM"
- Compound: "COc1cc(OCC2(C(F)(F)F)CC2)c(F)cc1CNC(=O)[C@@H]1CCCN1 [Example 27]"
  Reported Result: "5 to 15 nM"
